- TARGET ENTITY: Serotonin (5-Hydroxytryptamine) 5-HT2A (Homo sapiens, UniProt P28223)
- Sequence (P28223 whole entry): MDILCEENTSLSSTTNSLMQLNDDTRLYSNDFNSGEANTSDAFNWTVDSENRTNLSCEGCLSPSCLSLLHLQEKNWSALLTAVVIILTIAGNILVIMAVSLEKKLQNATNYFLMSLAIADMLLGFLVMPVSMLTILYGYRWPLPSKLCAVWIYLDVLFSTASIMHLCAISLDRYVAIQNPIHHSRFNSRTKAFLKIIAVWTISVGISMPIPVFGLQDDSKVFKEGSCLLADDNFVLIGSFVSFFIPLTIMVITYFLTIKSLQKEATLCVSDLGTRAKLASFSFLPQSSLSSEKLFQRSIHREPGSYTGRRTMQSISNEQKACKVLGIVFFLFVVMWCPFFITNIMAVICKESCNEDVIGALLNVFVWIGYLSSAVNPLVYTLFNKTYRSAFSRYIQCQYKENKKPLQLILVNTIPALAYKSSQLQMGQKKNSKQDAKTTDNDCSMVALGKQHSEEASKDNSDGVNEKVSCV
READOUT TYPE: Ki

1. CN[C@H]1CC[C@@H](c2ccc(Cl)c(Cl)c2)c2ccc(C#CCCCO)cc21 [compound Ia, hydroiodide]: 965 nM

----------
Target protein (sequence): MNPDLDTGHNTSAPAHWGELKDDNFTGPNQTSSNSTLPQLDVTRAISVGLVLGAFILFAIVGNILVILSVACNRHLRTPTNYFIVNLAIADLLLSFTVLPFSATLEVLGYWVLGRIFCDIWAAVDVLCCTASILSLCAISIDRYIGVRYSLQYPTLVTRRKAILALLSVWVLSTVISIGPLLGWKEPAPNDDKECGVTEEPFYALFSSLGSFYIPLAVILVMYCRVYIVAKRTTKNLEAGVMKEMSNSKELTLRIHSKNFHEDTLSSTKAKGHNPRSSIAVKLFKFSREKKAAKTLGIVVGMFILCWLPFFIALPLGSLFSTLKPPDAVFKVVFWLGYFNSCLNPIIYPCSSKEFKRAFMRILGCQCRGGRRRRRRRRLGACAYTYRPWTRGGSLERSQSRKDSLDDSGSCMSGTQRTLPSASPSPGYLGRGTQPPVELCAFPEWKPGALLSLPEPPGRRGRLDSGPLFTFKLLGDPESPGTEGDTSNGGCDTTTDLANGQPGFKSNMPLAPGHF
pKi: −log10 of the molar value.
READOUT TYPE: pKi

1) CN[C@H]1CC[C@@H](c2ccc(Cl)c(Cl)c2)c2ccc(C#CCCCO)cc21 [compound Ia, hydroiodide]: 6.51

----------
- TARGET ENTITY: Transporter, Serotonin (5-Hydroxytryptamine) (SERT) (Homo sapiens)
- Sequence (P31645 whole entry): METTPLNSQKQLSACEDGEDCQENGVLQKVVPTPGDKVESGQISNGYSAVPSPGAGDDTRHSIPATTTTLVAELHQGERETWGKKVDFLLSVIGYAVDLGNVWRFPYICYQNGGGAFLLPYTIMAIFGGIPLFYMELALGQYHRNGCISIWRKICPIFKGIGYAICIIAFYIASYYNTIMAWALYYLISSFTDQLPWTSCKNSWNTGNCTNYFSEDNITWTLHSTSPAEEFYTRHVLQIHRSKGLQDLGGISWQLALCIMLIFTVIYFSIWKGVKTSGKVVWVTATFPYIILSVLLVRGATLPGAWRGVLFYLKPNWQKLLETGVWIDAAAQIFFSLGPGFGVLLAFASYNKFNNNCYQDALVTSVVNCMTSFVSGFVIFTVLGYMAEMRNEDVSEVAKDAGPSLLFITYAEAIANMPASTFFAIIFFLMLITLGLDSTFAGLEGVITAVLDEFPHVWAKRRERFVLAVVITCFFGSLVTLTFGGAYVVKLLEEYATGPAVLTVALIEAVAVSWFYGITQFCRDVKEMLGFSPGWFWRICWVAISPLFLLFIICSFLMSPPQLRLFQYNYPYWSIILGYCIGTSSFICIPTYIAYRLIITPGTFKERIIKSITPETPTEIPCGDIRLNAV
READOUT TYPE: IC50

1. CN[C@H]1CC[C@@H](c2ccc(Cl)c(Cl)c2)c2ccc(C#CCCCO)cc21 [compound Ia, hydroiodide]: < 0.3 µM

----------
- TARGET ENTITY: Transporter, Norepinephrine (NET) (Homo sapiens, UniProt P23975)
- Sequence (P23975 whole entry): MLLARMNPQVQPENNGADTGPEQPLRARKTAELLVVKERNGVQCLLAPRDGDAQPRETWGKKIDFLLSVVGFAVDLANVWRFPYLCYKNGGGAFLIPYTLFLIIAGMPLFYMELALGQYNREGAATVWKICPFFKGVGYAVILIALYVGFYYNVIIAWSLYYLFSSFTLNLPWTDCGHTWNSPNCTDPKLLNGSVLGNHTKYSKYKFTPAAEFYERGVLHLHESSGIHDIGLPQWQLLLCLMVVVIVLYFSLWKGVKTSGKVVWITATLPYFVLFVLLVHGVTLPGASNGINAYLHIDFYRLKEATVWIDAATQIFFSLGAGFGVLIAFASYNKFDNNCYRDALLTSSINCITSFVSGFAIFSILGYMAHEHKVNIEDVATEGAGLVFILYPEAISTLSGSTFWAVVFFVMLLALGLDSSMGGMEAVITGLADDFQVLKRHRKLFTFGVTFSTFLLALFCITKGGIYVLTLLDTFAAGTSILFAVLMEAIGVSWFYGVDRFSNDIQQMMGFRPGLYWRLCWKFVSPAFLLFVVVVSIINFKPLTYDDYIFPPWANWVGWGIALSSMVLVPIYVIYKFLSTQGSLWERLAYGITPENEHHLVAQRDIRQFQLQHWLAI
READOUT TYPE: IC50 (nM)

1. CN[C@H]1CC[C@@H](c2ccc(Cl)c(Cl)c2)c2ccc(C#CCCCO)cc21 [compound Ia, hydroiodide]: 623

----------
- TARGET ENTITY: Sigma σ1 (Homo sapiens)
- Sequence (Q99720 whole entry): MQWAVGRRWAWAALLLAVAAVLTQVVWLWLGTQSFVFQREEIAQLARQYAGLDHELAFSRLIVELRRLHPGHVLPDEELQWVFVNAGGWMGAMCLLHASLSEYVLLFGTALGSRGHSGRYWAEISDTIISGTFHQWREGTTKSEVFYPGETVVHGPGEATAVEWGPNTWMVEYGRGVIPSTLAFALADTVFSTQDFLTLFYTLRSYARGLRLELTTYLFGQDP
READOUT TYPE: Ki (nM)

1. CN[C@H]1CC[C@@H](c2ccc(Cl)c(Cl)c2)c2ccc(C#CCCCO)cc21 [compound Ia, hydroiodide]: 352

----------
- TARGET ENTITY: Serotonin (5-Hydroxytryptamine) 5-HT2C (Homo sapiens)
- Sequence (P28335 33-458): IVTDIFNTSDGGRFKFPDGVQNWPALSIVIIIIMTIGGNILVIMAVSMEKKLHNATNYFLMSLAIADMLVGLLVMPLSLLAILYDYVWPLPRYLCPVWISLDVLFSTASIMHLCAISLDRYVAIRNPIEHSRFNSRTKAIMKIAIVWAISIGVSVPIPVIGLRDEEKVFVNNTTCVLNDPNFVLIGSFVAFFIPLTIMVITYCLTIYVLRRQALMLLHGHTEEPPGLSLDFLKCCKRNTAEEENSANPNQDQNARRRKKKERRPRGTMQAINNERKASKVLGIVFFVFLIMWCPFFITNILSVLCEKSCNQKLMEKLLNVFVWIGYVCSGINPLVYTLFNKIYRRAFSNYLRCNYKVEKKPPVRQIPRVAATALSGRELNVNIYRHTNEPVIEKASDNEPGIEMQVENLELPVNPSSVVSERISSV
pKi: −log10 of the molar value.
READOUT TYPE: pKi

1. CN[C@H]1CC[C@@H](c2ccc(Cl)c(Cl)c2)c2ccc(C#CCCCO)cc21 [compound Ia, hydroiodide]: 5.32

----------
- TARGET ENTITY: Adrenergic α2A (Homo sapiens, UniProt P08913)
- Sequence (P08913 whole entry): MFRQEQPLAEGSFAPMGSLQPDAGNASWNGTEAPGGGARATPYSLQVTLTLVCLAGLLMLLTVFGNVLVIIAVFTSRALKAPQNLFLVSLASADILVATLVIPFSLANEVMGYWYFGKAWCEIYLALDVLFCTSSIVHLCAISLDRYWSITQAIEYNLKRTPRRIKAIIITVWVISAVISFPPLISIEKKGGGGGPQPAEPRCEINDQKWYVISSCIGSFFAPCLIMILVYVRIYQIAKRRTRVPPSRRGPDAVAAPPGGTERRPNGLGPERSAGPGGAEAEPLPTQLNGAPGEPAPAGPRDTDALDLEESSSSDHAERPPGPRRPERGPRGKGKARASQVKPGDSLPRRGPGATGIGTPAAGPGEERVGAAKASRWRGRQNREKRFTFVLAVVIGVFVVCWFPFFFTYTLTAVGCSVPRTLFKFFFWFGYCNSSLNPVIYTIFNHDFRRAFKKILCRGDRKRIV
READOUT TYPE: Ki (nM)

1) CN[C@H]1CC[C@@H](c2ccc(Cl)c(Cl)c2)c2ccc(C#CCCCO)cc21 [compound Ia, hydroiodide]: 102

----------
- TARGET ENTITY: Serotonin (5-Hydroxytryptamine) 5-HT6 (Homo sapiens)
- Sequence (P50406 whole entry): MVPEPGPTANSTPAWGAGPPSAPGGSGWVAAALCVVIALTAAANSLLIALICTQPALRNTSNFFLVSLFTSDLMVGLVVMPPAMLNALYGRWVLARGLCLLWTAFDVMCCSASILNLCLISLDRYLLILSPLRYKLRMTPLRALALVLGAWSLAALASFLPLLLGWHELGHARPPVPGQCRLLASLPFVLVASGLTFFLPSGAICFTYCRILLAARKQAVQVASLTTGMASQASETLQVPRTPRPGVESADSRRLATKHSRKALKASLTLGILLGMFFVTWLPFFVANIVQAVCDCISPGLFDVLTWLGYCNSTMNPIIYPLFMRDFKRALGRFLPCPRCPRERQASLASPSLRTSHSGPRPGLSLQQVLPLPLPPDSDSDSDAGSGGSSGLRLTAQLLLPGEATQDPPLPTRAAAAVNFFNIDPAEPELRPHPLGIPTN
pIC50: −log10 of the molar value.
READOUT TYPE: pIC50

1) CN[C@H]1CC[C@@H](c2ccc(Cl)c(Cl)c2)c2ccc(C#CCCCO)cc21 [compound Ia, hydroiodide]: 5.59

----------
- TARGET ENTITY: Adrenergic α1D (Homo sapiens)
- Sequence (P25100 whole entry): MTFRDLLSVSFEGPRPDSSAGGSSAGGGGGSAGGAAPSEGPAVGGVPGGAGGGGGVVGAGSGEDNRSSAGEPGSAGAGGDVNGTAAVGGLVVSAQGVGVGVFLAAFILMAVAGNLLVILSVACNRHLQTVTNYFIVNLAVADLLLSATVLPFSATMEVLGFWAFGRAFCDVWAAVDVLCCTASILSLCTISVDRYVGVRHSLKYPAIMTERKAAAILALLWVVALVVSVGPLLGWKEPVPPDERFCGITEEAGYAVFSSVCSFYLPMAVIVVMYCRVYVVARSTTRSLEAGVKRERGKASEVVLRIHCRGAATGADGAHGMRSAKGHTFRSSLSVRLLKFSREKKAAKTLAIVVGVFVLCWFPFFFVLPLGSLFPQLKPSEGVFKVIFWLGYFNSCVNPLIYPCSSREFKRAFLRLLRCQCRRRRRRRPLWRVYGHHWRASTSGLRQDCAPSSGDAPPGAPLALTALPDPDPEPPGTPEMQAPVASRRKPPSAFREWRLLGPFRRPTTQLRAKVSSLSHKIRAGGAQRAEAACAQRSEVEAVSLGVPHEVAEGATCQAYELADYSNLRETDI
pIC50: −log10 of the molar value.
READOUT TYPE: pIC50

1. CN[C@H]1CC[C@@H](c2ccc(Cl)c(Cl)c2)c2ccc(C#CCCCO)cc21 [compound Ia, hydroiodide]: 5.60

Cited source: patent US20100130549A1
